Tested on: edema induced by carragenin in rat's right hind paw
measurementNotes: rat foot edema assay (carragenin-induced, C.F.E.)
Assay type: in vivo, rat (male, Sprague Dawley)
measurementParameters: Rattus norvegicus; 20 mg/kg, oral, one hour before carragenin; foot volume 3 h later
Give inhibition in vivo at 20 mg/kg for every item shown.
Numbers only, in %.

Report inhibition in vivo at 20 mg/kg for each item below.
1. COc1cc(CC(=O)O)n(C)c1C(=O)c1ccc(Cl)cc1 [4-ClC6 H5; CH3 O; CH3]
2. COc1cc(CC(=O)O)n(C)c1C(=O)c1ccc(C(F)(F)F)cc1 [4-CF3C6 H5; OCH3; CH3]
3. CCOc1cc(CC(=O)O)n(C)c1C(=O)c1ccc(Cl)cc1 [4-ClC6 H5; OC2 H5; CH3]

-- reply
[60, 57, 33]

For the 2 compounds below, give their inhibition in vivo at 20 mg/kg values.
1. C=C(Cl)COc1cc(CC(=O)O)n(C)c1C(=O)c1ccc(Cl)cc1 [4-ClC6 H5; drawing 13; CH3]
2. COc1cc(CC(=O)O)n(C)c1C(=O)c1ccc(C)cc1 [4-CH3C6 H5; OCH3; CH3]

-- reply
1. 32
2. 38

====

Test system: gastric mucosa
measurementNotes: Gastric Hemorrhage Lesion Formation Assay (GHLF) / gastric irritation
Format: in vivo, rat (Sprague-Dawley, male)
measurementParameters: 90 mg/kg, oral, fasted, 4 h
readoutLabel: Ave. No. of lesions per Animal
Numbers only.

Study these solved cases before continuing.
{"columns": ["compound", "Ave. No. of lesions per Animal"],
 "data": [
  ["COc1cc(CC(=O)O)n(C)c1C(=O)c1ccc(C)cc1 [4-CH3C6 H5; OCH3; CH3]", 0],
  ["Cc1cc(CC(=O)O)n(C)c1C(=O)c1ccccn1", 0],
  ["CSc1ccc(C(=O)c2c(C)cc(CC(=O)OCCNC(C)=O)n2C)n1C", 0.5],
  ["COc1cc(CC(=O)O)n(C)c1C(=O)c1ccc(Cl)cc1 [4-ClC6 H5; CH3 O; CH3]", 2],
  ["COc1cc(CC(=O)O)n(C)c1C(=O)c1ccc(C(F)(F)F)cc1 [4-CF3C6 H5; OCH3; CH3]", 0]
]}

We next turn to a different compound, shown below.
-- ask Reported Ave. No. of lesions per Animal for Cc1cc(CC(=O)O)n(C)c1C(=O)c1cccnc1 [drawing 23] : what is it?
-- reply 0

====

Test system: gastric mucosa
measurementNotes: Gastric Hemorrhage Lesion Formation Assay (GHLF) / gastric irritation
Format: in vivo, rat (Sprague-Dawley, male)
measurementParameters: 10 mg/kg, oral, fasted, 4 h
Record form. Attribute: Ave. No. of lesions per Animal. Fill in for each entry.
Numbers only.

Field: example entries. Status: answers known.
{"columns": ["molecule", "Ave. No. of lesions per Animal"],
 "data": [
  ["COc1cc(CC(=O)O)n(C)c1C(=O)c1ccc(Cl)cc1", 0],
  ["COc1cc(CC(=O)O)n(C)c1C(=O)c1ccc(C)cc1", 0],
  ["CSc1ccc(C(=O)c2c(C)cc(CC(=O)O)n2C)n1C [drawing 24]", 0]
]}

Provide each entry's Ave. No. of lesions per Animal from the list below.
1. COc1cc(CC(=O)O)n(C)c1C(=O)c1ccc(C(F)(F)F)cc1
2. CSc1ccc(C(=O)c2c(C)cc(CC(=O)OCCNC(C)=O)n2C)n1C
3. COc1cc(CC(=O)O)n(C)c1C(=O)c1ccc(SC)cc1

-- reply
0
0
0.5
